Data credit: patent US4990531A

These compounds were tested on opiated receptor mu (Homo sapiens, UniProt P35372); IC50 is the recorded read-out.
Sequence (P35372 whole entry): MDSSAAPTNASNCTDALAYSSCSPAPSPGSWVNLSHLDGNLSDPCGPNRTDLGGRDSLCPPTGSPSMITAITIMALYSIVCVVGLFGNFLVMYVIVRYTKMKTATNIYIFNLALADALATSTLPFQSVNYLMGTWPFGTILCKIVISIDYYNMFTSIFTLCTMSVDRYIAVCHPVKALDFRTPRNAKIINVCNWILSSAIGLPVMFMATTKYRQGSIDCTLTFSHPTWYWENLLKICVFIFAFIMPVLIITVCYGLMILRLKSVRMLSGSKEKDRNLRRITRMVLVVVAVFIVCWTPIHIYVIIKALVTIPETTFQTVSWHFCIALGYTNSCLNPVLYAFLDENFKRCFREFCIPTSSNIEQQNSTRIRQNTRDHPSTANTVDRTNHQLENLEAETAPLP

- molecule: "CC(C)(C)c1ccc(S(=O)(=O)N2CCCC2=O)cc1"
  targetOfAssay: "opiated receptor mu (Homo sapiens, UniProt P35372)"
  IC50: "5 to 10 µM"

Please look at the following compound next.
Item CCN(CC)c1ccc(S(=O)(=O)N2CCCC2=O)cc1 was tested on opiated receptor mu (Homo sapiens, UniProt P35372); the reported IC50 is 5 to 10 µM

###

pIC50: −log10 of the molar value.
These compounds were tested on opiated receptor kappa (Homo sapiens, UniProt P41145); pIC50 is the recorded read-out.
Sequence (P41145 whole entry): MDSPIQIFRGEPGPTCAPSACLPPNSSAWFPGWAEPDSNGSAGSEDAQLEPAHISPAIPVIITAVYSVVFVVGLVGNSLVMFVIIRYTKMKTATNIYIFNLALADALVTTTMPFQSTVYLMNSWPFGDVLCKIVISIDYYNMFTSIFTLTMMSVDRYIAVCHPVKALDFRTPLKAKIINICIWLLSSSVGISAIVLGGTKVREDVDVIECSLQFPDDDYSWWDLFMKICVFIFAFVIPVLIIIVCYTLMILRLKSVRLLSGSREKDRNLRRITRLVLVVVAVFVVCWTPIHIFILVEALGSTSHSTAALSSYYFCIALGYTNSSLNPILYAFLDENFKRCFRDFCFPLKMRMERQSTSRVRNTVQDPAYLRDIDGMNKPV

- compound: "CCN(CC)c1ccc(S(=O)(=O)N2CCCC2=O)cc1 [Example 2]"
  pIC50: "5.00 to 5.30"

Please look at the following compound next.
Record CC(C)(C)c1ccc(S(=O)(=O)N2CCCC2=O)cc1 [Example 1] . Reported pIC50: 5.00 to 5.30
